src = patent US20210038607A1

# SYSTEM: Human HDAC4 (Homo sapiens, UniProt P56524)
# Construct: amino acids 627-1085 with N-terminal GST tag; GST (N); host or cells: baculovirus expression system
# Sequence (P56524 627-1084 limits assumed): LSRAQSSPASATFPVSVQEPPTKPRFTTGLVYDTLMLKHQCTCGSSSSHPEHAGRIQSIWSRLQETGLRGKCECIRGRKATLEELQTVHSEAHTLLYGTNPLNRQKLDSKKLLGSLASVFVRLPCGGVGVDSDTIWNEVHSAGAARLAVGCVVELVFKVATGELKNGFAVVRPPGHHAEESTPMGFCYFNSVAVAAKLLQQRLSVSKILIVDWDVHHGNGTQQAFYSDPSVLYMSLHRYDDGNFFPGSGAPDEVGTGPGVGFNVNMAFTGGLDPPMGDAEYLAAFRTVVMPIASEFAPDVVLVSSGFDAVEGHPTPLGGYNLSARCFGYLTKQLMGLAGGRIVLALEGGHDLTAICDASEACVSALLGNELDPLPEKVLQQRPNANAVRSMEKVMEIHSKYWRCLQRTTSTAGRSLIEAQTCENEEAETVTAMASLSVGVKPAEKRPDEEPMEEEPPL
# EXPERIMENT DESCRIPTION: HDAC4 biochemical assay, class IIa-specific substrate
# ASSAY CONTEXT: read-out: HDAC Isoform IC50 (nM) 4
Please go through the items and note down their IC50.

| MOLECULE | IC50 |
| --- | --- |
| FC(F)(F)c1cnnc(N(Cc2ccc(-c3noc(C(F)(F)F)n3)s2)c2ncccn2)c1 [Example EK] | > 10000 nM |

List reported IC50 for each of these molecules:
1. O=C(c1cnnc(N(Cc2ccc(-c3noc(C(F)(F)F)n3)s2)c2cnccn2)c1)N1CC2CCC(C1)O2 [Example GA]
2. FC(F)c1cnnc(N(Cc2ccc(-c3noc(C(F)(F)F)n3)s2)c2cnccn2)c1 [Example GV]

≤ 10000 nM
≤ 10000 nM
